UniProtKB Q96RG2 IC50 data

[
  {
    "Smiles Entry": "O=c1c2c([nH]c3c(-c4ccc(Cl)cc4)c(Cc4ccccc4)nn13)CCC2",
    "IC50": "≥ 10 µM"
  }
]

Would you be so kind as to report IC50 for each listed record?
1. Cc1cc(=O)n2nc(C)c(-c3ccc(Cl)cc3)c2[nH]1
2. COc1ccc(-c2cc(=O)n3nc(C)c(-c4ccc(F)cc4)c3[nH]2)cc1
3. COc1ccccc1-c1cc(=O)n2nc(C)c(-c3ccccc3)c2[nH]1
4. Cc1nn2c(=O)cc(-c3ccc([N+](=O)[O-])cc3)[nH]c2c1-c1ccc(Cl)cc1
5. O=c1cc(-c2ccccc2)[nH]c2c(-c3cccc4ccccc34)c(Cc3ccccc3)nn12

["≥ 10 µM", "≤ 10 µM", "≤ 10 µM", "≤ 10 µM", "≥ 10 µM"]

---

Target: PASK (Homo sapiens (Human), UniProt Q96RG2)
Sequence (Q96RG2 999-1251): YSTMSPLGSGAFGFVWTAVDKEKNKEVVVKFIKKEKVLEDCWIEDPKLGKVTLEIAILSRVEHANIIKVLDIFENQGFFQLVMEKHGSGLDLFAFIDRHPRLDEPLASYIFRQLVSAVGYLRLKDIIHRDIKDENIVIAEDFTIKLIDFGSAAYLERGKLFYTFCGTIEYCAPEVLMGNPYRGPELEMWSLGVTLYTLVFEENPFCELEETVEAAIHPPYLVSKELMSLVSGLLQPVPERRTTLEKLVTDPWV
Experiment: PAS Kinase FRET Assay
Assay type: biochemical
Conditions: TR-FRET assay; read-out: IC50 Kinase Domain
pIC50: −log10 of the molar value.
Readout: pIC50

Solved cases (3 shown):
[
  {
    "Compound": "Cc1nn2c(=O)cc(-c3ccc4[nH]nnc4c3C)[nH]c2c1-c1ccccn1 [Example 242]",
    "Reported": "≥ 5.00"
  },
  {
    "Compound": "Cc1nn2c(=O)cc(-c3ccc4c(c3)OCO4)[nH]c2c1Cc1ccc(Cl)cc1 [Example 76]",
    "Reported": "≥ 5.00"
  },
  {
    "Compound": "O=c1cc(-c2ccc(Cl)cc2)[nH]c2c(Cc3ccccc3)cnn12 [Example 132]",
    "Reported": "≥ 5.00"
  }
]

Would you be so kind as to report pIC50 for each listed record?
1. O=c1cc(-c2ccc3c(c2)CCO3)[nH]c2c(-c3ccccn3)cnn12 [Example 96]
2. O=c1cc(-c2ccc3[nH]nnc3c2)[nH]c2c(-c3ccccn3)c(O)nn12 [Example 193]
3. Cc1cc2cc(-c3cc(=O)n4nc(N)c(-c5ccccn5)c4[nH]3)ccc2o1 [Example 170]
4. Cn1ncc2cc(-c3cc(=O)n4nc(N)c(-c5ccccn5)c4[nH]3)ccc21 [Example 184]
5. O=c1c2c([nH]c3c(-c4ccccn4)cnn13)-c1ccccc1CC2 [Example 116]
6. COc1ccc(-c2cnn3c(=O)cc(-c4ccccc4)[nH]c23)cn1 [Example 112]
7. O=c1cc(-c2ccc3occc3c2)[nH]c2c(-c3ccccn3)c(O)nn12 [Example 131]

["≥ 5.00", "≥ 5.00", "≥ 5.00", "≥ 5.00", "≥ 5.00", "≥ 5.00", "≥ 5.00"]

Would you be so kind as to report pIC50 for each listed record?
1. COc1cccc(-c2cnn3c(=O)cc(-c4ccc5c(c4)OCCO5)[nH]c23)c1 [Example 92]
2. COc1c(-c2cc(=O)n3nc(O)c(-c4ccccn4)c3[nH]2)ccc2c1OCO2 [Example 235]
3. CNC(=O)Oc1ccc(-c2cc(=O)n3ncc(-c4ccccn4)c3[nH]2)cc1 [Example 253]
4. Nc1nn2c(=O)cc(-c3ccc4occc4c3)[nH]c2c1-c1ccccn1 [Example 165]
5. COc1c(-c2cc(=O)n3nc(N)c(-c4ccccn4)c3[nH]2)ccc2[nH]nnc12 [Example 246]
6. O=c1cc(-c2ccc(F)cc2)[nH]c2c(-c3ccccn3)c(O)nn12 [Example 137]
7. O=c1cc(-c2ccc3[nH]ncc3c2)[nH]c2c(-c3ccccn3)cnn12 [Example 160]

1. ≥ 5.00
2. ≥ 5.00
3. ≥ 5.00
4. ≥ 5.00
5. ≥ 5.00
6. ≥ 5.00
7. ≥ 5.00

For PASK (Homo sapiens (Human), UniProt Q96RG2), give the measured pIC50 of the entry O=c1cc(-c2ccc3[nH]nnc3c2)[nH]c2c(Cc3ccccc3)cnn12 [Example 207]
≥ 5.00
